Cited source for all entries: ChEMBL document CHEMBL4138227

test: Volume of distribution at steady state in Sprague-Dawley rat at 1.1 mg/kg, iv; format: ADME, organism-based; conditions: in vivo, read-out: Vdss
MEASURED_PROPERTY: Vd (L/kg)
Lab book: enter the figure in L/kg, no units written.

Input line: Fill blank: measured Vd of the molecule "CCOc1ccc(Cc2cc([C@@H]3O[C@H](/C=N/NCCO)[C@@H](O)[C@H](O)[C@H]3O)ccc2Cl)cc1" is ____.
Output line: 0.8

----------
biological target: hERG (KCNH2) (Homo sapiens); assay: Inhibition of human ERG at 10 uM by radioligand assay relative to control
Sequence (Q12809 whole entry): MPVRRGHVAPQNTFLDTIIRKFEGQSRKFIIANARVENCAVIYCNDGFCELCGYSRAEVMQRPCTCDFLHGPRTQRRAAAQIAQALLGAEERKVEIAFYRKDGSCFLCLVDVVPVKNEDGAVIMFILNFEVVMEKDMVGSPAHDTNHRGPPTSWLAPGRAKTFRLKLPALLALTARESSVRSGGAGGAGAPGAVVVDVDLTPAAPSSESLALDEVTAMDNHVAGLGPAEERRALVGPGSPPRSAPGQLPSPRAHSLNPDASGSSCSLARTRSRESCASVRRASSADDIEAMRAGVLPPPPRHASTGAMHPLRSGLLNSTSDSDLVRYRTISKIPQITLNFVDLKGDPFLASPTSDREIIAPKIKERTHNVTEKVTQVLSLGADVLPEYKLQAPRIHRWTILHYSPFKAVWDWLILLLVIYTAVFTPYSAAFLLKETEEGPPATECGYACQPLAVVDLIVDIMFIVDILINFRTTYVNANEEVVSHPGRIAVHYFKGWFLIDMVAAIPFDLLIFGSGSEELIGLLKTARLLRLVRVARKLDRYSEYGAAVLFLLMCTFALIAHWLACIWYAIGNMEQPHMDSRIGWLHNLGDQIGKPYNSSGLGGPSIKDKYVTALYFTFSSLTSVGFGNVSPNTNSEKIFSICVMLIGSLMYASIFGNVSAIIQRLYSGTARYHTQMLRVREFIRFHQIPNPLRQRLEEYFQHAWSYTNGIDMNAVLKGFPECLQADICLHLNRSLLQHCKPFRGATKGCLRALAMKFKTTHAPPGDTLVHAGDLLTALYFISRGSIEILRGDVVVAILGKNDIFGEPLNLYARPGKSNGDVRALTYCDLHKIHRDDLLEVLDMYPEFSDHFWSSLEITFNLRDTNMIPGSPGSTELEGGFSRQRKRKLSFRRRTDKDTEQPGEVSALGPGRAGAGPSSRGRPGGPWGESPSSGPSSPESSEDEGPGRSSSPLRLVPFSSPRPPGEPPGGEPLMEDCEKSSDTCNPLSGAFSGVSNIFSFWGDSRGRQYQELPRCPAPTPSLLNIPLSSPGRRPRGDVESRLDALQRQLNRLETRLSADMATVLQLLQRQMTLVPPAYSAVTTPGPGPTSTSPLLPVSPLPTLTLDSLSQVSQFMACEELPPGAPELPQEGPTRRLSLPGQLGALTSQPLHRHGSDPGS
MEASURED_PROPERTY: inhibition at 10 µM (%)
# number only, unit % dropped from output

Input line: # input molecule: "CCOc1ccc(Cc2cc([C@@H]3O[C@H](/C=N/O)[C@@H](O)[C@H](O)[C@H]3O)ccc2Cl)cc1" ; wanted: its inhibition at 10 µM
Output line: 2
